System: Aspergillus niger
Test: Antimicrobial activity against Aspergillus niger MTCC 282 assessed as diameter of growth inhibition zone after 48 hr
Format: functional
measure: diameter of the inhibition zone (DIZ)

Observe how each entry below is paired with its result.
[
  {
    "compound": "N#Cc1c(-c2ccccc2Br)cc(-c2ccc(Nc3cc(=O)oc4ccccc34)cc2)nc1N",
    "target entity": "Aspergillus niger",
    "diameter of the inhibition zone (DIZ)": "22 mm"
  },
  {
    "compound": "COc1ccc(-c2cc(-c3ccc(Nc4cc(=O)oc5ccccc45)cc3)nc(N)c2C#N)cc1",
    "target entity": "Aspergillus niger",
    "diameter of the inhibition zone (DIZ)": "25 mm"
  },
  {
    "compound": "COc1ccc(/C=C/C(=O)c2ccc(Nc3cc(=O)oc4ccccc34)cc2)cc1",
    "target entity": "Aspergillus niger",
    "diameter of the inhibition zone (DIZ)": "20 mm"
  },
  {
    "compound": "N#Cc1c(-c2ccc(F)cc2)cc(-c2ccc(Nc3cc(=O)oc4ccccc34)cc2)nc1N",
    "target entity": "Aspergillus niger",
    "diameter of the inhibition zone (DIZ)": "23 mm"
  },
  {
    "compound": "Nc1nc(-c2ccc(Nc3cc(=O)oc4ccccc34)cc2)cc(-c2ccccc2O)n1",
    "target entity": "Aspergillus niger",
    "diameter of the inhibition zone (DIZ)": "21 mm"
  }
]

State recorded diameter of the inhibition zone (DIZ) for all listed compounds.
1. COc1ccc(-c2cc(-c3ccc(Nc4cc(=O)oc5ccccc45)cc3)nc(N)n2)cc1
2. CC(=O)N1N=C(c2ccc(Nc3cc(=O)oc4ccccc34)cc2)CC1c1ccc(F)cc1 (centres undefined)

1. 23 mm
2. 20 mm

State recorded diameter of the inhibition zone (DIZ) for all listed compounds.
1. COc1ccc(-c2cc(-c3ccc(Nc4cc(=O)oc5ccccc45)cc3)nc(N)c2C#N)cc1OC
2. CC(=O)N1N=C(c2ccc(Nc3cc(=O)oc4ccccc34)cc2)CC1c1ccc(Cl)cc1 (centres undefined)

1: 27 mm; 2: 16 mm

---

For each of the compounds below, state its log10 of MIC.
System: Proteus vulgaris
Assay: Antimicrobial activity against Proteus vulgaris MTCC 1771 assessed as growth inhibition after 24 hr by agar streak dilution method
Format: functional
Details: MTCC 1771, 24 h
A value of 2 here means MIC of 100 in µg/mL, since values are log10.

Observe how each entry below is paired with its result.
[
  {
    "compound": "Nc1nc(-c2ccc(Nc3cc(=O)oc4ccccc34)cc2)cc(-c2ccc(O)cc2O)n1",
    "measure": "log10 of MIC",
    "value observed": 0.49
  },
  {
    "compound": "N#Cc1c(-c2ccc(Cl)cc2)cc(-c2ccc(Nc3cc(=O)oc4ccccc34)cc2)nc1N",
    "measure": "log10 of MIC",
    "value observed": 0.80
  },
  {
    "compound": "COc1ccc(C2CC(c3ccc(Nc4cc(=O)oc5ccccc45)cc3)=NN2C(C)=O)cc1 (centres undefined)",
    "measure": "log10 of MIC",
    "value observed": 1.70
  },
  {
    "compound": "O=C(/C=C/c1ccccc1Br)c1ccc(Nc2cc(=O)oc3ccccc23)cc1",
    "measure": "log10 of MIC",
    "value observed": 2.00
  },
  {
    "compound": "Nc1nc(-c2ccc(Nc3cc(=O)oc4ccccc34)cc2)cc(-c2ccc([N+](=O)[O-])cc2)n1",
    "measure": "log10 of MIC",
    "value observed": 2.00
  }
]

State recorded log10 of MIC for all listed compounds.
1. COc1ccc(-c2cc(-c3ccc(Nc4cc(=O)oc5ccccc45)cc3)nc(N)c2C#N)cc1OC
2. Nc1nc(-c2ccc(Nc3cc(=O)oc4ccccc34)cc2)cc(-c2ccccc2O)n1
3. COc1ccc(-c2cc(-c3ccc(Nc4cc(=O)oc5ccccc45)cc3)nc(N)n2)cc1
4. CC(=O)N1N=C(c2ccc(Nc3cc(=O)oc4ccccc34)cc2)CC1c1ccccc1 (centres undefined)
5. COc1ccc(/C=C/C(=O)c2ccc(Nc3cc(=O)oc4ccccc34)cc2)cc1

1. 0.80
2. 1.70
3. 1.10
4. 2.00
5. 1.70

State recorded log10 of MIC for all listed compounds.
1. CC(=O)N1N=C(c2ccc(Nc3cc(=O)oc4ccccc34)cc2)CC1c1ccccc1Br (centres undefined)
2. COc1ccc(-c2cc(-c3ccc(Nc4cc(=O)oc5ccccc45)cc3)nc(N)c2C#N)cc1
3. Nc1nc(-c2ccc(Nc3cc(=O)oc4ccccc34)cc2)cc(-c2ccccc2Br)n1

[2.00, 0.80, 2.00]

State recorded log10 of MIC for all listed compounds.
1. N#Cc1c(-c2ccc(O)cc2O)cc(-c2ccc(Nc3cc(=O)oc4ccccc34)cc2)nc1N
2. N#Cc1c(-c2ccccc2)cc(-c2ccc(Nc3cc(=O)oc4ccccc34)cc2)nc1N
3. CC(=O)N1N=C(c2ccc(Nc3cc(=O)oc4ccccc34)cc2)CC1c1ccc(O)cc1O (centres undefined)
4. COc1ccc(C2CC(c3ccc(Nc4cc(=O)oc5ccccc45)cc3)=NN2C(C)=O)cc1OC (centres undefined)
5. O=C(/C=C/c1ccccc1O)c1ccc(Nc2cc(=O)oc3ccccc23)cc1
6. Cc1ccc(/C=C/C(=O)c2ccc(Nc3cc(=O)oc4ccccc34)cc2)cc1
7. O=C(/C=C/c1ccc(Cl)cc1)c1ccc(Nc2cc(=O)oc3ccccc23)cc1
8. N#Cc1c(-c2ccccc2Br)cc(-c2ccc(Nc3cc(=O)oc4ccccc34)cc2)nc1N

1. 1.10
2. 1.40
3. 1.10
4. 1.70
5. 2.00
6. 1.70
7. 2.00
8. 1.40

---

System: Candida albicans
Test: Antimicrobial activity against Candida albicans MTCC 183 assessed as growth inhibition after 48 hr by agar streak dilution method
Assay type: functional
Details: MTCC 183, 48 h
Assign labels as follows, please: True for MIC below 20 µg/mL; False for MIC equal to or exceeding 20 µg/mL.

// below: answered compounds
[
  {
    "compound": "O=C(/C=C/c1ccccc1)c1ccc(Nc2cc(=O)oc3ccccc23)cc1",
    "target entity": "Candida albicans",
    "discrete label": "False"
  },
  {
    "compound": "CC(=O)N1CCN(c2ccc(OCC3COC(Cn4ccnc4)(c4ccc(Cl)cc4Cl)O3)cc2)CC1 (stereo unspecified)",
    "target entity": "Candida albicans",
    "discrete label": "True"
  },
  {
    "compound": "N#Cc1c(-c2ccc(O)cc2O)cc(-c2ccc(Nc3cc(=O)oc4ccccc34)cc2)nc1N",
    "target entity": "Candida albicans",
    "discrete label": "True"
  }
]

Now take the following compound into account.
Would you kindly verify if MIC of "Nc1nc(-c2ccc(Nc3cc(=O)oc4ccccc34)cc2)cc(-c2ccccc2O)n1" is strictly less than 20 µg/mL? False

---

For each of the compounds below, state its diameter of the inhibition zone (DIZ).
Test system: Aspergillus fumigatus
Test: Antimicrobial activity against Aspergillus fumigatus MTCC 343 assessed as diameter of growth inhibition zone after 48 hr
Assay type: functional
Please format your answer as a value with the unit trailing.

Observe how each entry below is paired with its result.
[
  {
    "compound": "CC(=O)N1N=C(c2ccc(Nc3cc(=O)oc4ccccc34)cc2)CC1c1ccc([N+](=O)[O-])cc1 (centres undefined)",
    "measure": "diameter of the inhibition zone (DIZ)",
    "value observed": "13 mm"
  },
  {
    "compound": "O=C(/C=C/c1ccccc1)c1ccc(Nc2cc(=O)oc3ccccc23)cc1",
    "measure": "diameter of the inhibition zone (DIZ)",
    "value observed": "12 mm"
  },
  {
    "compound": "O=C(/C=C/c1ccc(F)cc1)c1ccc(Nc2cc(=O)oc3ccccc23)cc1",
    "measure": "diameter of the inhibition zone (DIZ)",
    "value observed": "19 mm"
  },
  {
    "compound": "COc1ccc(/C=C/C(=O)c2ccc(Nc3cc(=O)oc4ccccc34)cc2)cc1OC",
    "measure": "diameter of the inhibition zone (DIZ)",
    "value observed": "17 mm"
  },
  {
    "compound": "Nc1nc(-c2ccccc2)cc(-c2ccc(Nc3cc(=O)oc4ccccc34)cc2)n1",
    "measure": "diameter of the inhibition zone (DIZ)",
    "value observed": "19 mm"
  }
]

State recorded diameter of the inhibition zone (DIZ) for all listed compounds.
1. CC(=O)N1N=C(c2ccc(Nc3cc(=O)oc4ccccc34)cc2)CC1c1ccc(Cl)cc1Cl (centres undefined)
2. COc1ccc(-c2cc(-c3ccc(Nc4cc(=O)oc5ccccc45)cc3)nc(N)c2C#N)cc1
3. COc1ccc(C2CC(c3ccc(Nc4cc(=O)oc5ccccc45)cc3)=NN2C(C)=O)cc1OC (centres undefined)
4. CC(=O)N1N=C(c2ccc(Nc3cc(=O)oc4ccccc34)cc2)CC1c1ccc(O)cc1O (centres undefined)

19 mm
21 mm
19 mm
24 mm
